Cited source for all entries: patent US8609690B2

# ASSAY SYSTEM: 11β-HSD 1 (Homo sapiens, UniProt P28845)
# Construct: detecting cortisol generated from cortisterone by human liver microsomes; from tissue; host or cells: human liver microsomes
# Sequence (P28845 whole entry): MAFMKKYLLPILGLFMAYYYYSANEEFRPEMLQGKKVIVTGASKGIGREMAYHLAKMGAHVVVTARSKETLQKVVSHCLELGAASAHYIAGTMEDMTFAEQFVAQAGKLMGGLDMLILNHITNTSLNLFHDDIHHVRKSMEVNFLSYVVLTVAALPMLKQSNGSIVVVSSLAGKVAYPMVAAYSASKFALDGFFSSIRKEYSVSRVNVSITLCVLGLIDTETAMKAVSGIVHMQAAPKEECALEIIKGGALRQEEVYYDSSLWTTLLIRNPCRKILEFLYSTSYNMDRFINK
# ASSAY NAME: In vitro inhibition of 11β-HSD 1, HTRF detection of cortisol generated by human liver microsomes
# Format: biochemical
# TEST SETTINGS: 1 μM test compound, 100% indicates no inhibition, zero or below zero indicates complete inhibition (relative to carbenoxolone)
Please use 1 (yes) whenever Inhibitory activity on 11β-HSD 1, % CTL is not below 60 % CTL, and 0 (no) whenever it is.

[
  {
    "COMPOUND": "O=C(c1cccc2ncccc12)N1[C@@H]2CC[C@H]1C[C@@H](c1ccc(F)cc1)C2",
    "LABEL VALUE": "0 (no)"
  },
  {
    "COMPOUND": "O=C(c1ccc2c(c1)OC(F)(F)O2)N1[C@@H]2CC[C@H]1C[C@@H](c1ccc(F)cc1)C2",
    "LABEL VALUE": "1 (yes)"
  },
  {
    "COMPOUND": "Cc1ccc([C@H]2C[C@H]3CC[C@@H](C2)N3C(=O)c2ccc(OC3CSC3)cc2)cc1",
    "LABEL VALUE": "1 (yes)"
  },
  {
    "COMPOUND": "O=C(c1ccc(F)cc1)N1[C@@H]2CC[C@H]1C[C@@H](c1ccc(F)cc1)C2",
    "LABEL VALUE": "0 (no)"
  },
  {
    "COMPOUND": "Cc1ccc(C(=O)N2[C@@H]3CC[C@H]2C[C@@H](c2ccc(F)cc2)C3)cc1C",
    "LABEL VALUE": "0 (no)"
  },
  {
    "COMPOUND": "C[Si](C)(C)c1ccc([C@H]2C[C@H]3CC[C@@H](C2)N3C(=O)c2ccc3c(c2)OCCO3)cc1",
    "LABEL VALUE": "0 (no)"
  },
  {
    "COMPOUND": "CNC(=O)c1ccc(C(=O)N2[C@@H]3CC[C@H]2C[C@@H](c2ccc(F)cc2)C3)cc1",
    "LABEL VALUE": "1 (yes)"
  },
  {
    "COMPOUND": "COc1cc(C(=O)N2[C@@H]3CC[C@H]2C[C@@H](c2ccc(F)cc2)C3)cc(OC)c1OC",
    "LABEL VALUE": "0 (no)"
  },
  {
    "COMPOUND": "O=C(c1ccc(-c2cnco2)cc1)N1[C@@H]2CC[C@H]1C[C@@H](c1ccc(F)cc1)C2",
    "LABEL VALUE": "0 (no)"
  },
  {
    "COMPOUND": "CN1C(=O)Cc2cc(C(=O)N3[C@@H]4CC[C@H]3C[C@@H](c3ccc(F)cc3)C4)ccc21",
    "LABEL VALUE": "0 (no)"
  },
  {
    "COMPOUND": "O=C(c1ccc2c(c1)OCCO2)N1C2CCC1CC(c1cccc(-c3ccccc3)c1)C2 (stereo not shown)",
    "LABEL VALUE": "1 (yes)"
  },
  {
    "COMPOUND": "Cn1ccc2cc(C(=O)N3[C@@H]4CC[C@H]3C[C@@H](c3ccc(F)cc3)C4)ccc21",
    "LABEL VALUE": "0 (no)"
  },
  {
    "COMPOUND": "Nc1ccc(C(=O)N2[C@@H]3CC[C@H]2C[C@@H](c2ccc(F)cc2)C3)cc1F",
    "LABEL VALUE": "0 (no)"
  },
  {
    "COMPOUND": "O=C(c1ccc2c(c1)OCCO2)N1[C@@H]2CC[C@H]1C[C@@H](c1ccc(O)cc1)C2",
    "LABEL VALUE": "0 (no)"
  },
  {
    "COMPOUND": "O=C(c1ccc2c(c1)OCCO2)N1[C@@H]2CC[C@H]1C[C@@H](c1ccc(F)cc1)C2",
    "LABEL VALUE": "0 (no)"
  },
  {
    "COMPOUND": "Cc1ccc([C@H]2C[C@H]3CC[C@@H](C2)N3C(=O)c2cccs2)cc1",
    "LABEL VALUE": "0 (no)"
  },
  {
    "COMPOUND": "Cc1[nH]c2ccc(C(=O)N3[C@@H]4CC[C@H]3C[C@@H](c3ccc(F)cc3)C4)cc2c1C",
    "LABEL VALUE": "0 (no)"
  },
  {
    "COMPOUND": "O=C(c1ccc2c(c1)OCO2)N1[C@@H]2CC[C@H]1C[C@@H](c1ccc(F)cc1)C2",
    "LABEL VALUE": "0 (no)"
  },
  {
    "COMPOUND": "Cc1cc(=O)n2ncc(C(=O)N3[C@@H]4CC[C@H]3C[C@@H](c3ccc(F)cc3)C4)c2[nH]1",
    "LABEL VALUE": "1 (yes)"
  },
  {
    "COMPOUND": "Cc1nc(-c2cccc(C(=O)N3[C@@H]4CC[C@H]3C[C@@H](c3ccc(F)cc3)C4)c2)no1",
    "LABEL VALUE": "1 (yes)"
  },
  {
    "COMPOUND": "O=C(c1ccc2c(c1)OCCO2)N1C2CCC1CC(c1ccc(F)c(Cl)c1)C2 (stereo not shown)",
    "LABEL VALUE": "0 (no)"
  },
  {
    "COMPOUND": "CC(=O)Cc1ccc(C(=O)N2[C@@H]3CC[C@H]2C[C@@H](c2ccc(F)cc2)C3)cc1",
    "LABEL VALUE": "1 (yes)"
  },
  {
    "COMPOUND": "Cn1c(=O)[nH]c2cc(C(=O)N3[C@@H]4CC[C@H]3C[C@@H](c3ccc(F)cc3)C4)ccc21",
    "LABEL VALUE": "1 (yes)"
  },
  {
    "COMPOUND": "N#Cc1ccccc1C(=O)N1[C@@H]2CC[C@H]1C[C@@H](c1ccc(F)cc1)C2",
    "LABEL VALUE": "1 (yes)"
  },
  {
    "COMPOUND": "O=C(c1ccc(Cl)cc1)N1[C@@H]2CC[C@H]1C[C@@H](c1ccc(F)cc1)C2",
    "LABEL VALUE": "0 (no)"
  },
  {
    "COMPOUND": "O=C(c1ccc(CO)cc1)N1[C@@H]2CC[C@H]1C[C@@H](c1ccc(F)cc1)C2",
    "LABEL VALUE": "0 (no)"
  },
  {
    "COMPOUND": "O=C1NCc2cccc(C(=O)N3[C@@H]4CC[C@H]3C[C@@H](c3ccc(F)cc3)C4)c21",
    "LABEL VALUE": "1 (yes)"
  },
  {
    "COMPOUND": "NCc1cccc([C@@H]2C[C@H]3CC[C@@H](C2)N3C(=O)c2ccc3c(c2)OCCO3)c1",
    "LABEL VALUE": "1 (yes)"
  },
  {
    "COMPOUND": "COc1ccc(C(=O)N2[C@@H]3CC[C@H]2C[C@@H](c2ccc(F)cc2)C3)c(OC)c1",
    "LABEL VALUE": "0 (no)"
  },
  {
    "COMPOUND": "O=C(c1ccc(O)c(F)c1)N1[C@@H]2CC[C@H]1C[C@@H](c1ccc(F)cc1)C2",
    "LABEL VALUE": "0 (no)"
  },
  {
    "COMPOUND": "COc1cc(OC)cc(C(=O)N2[C@@H]3CC[C@H]2C[C@@H](c2ccc(F)cc2)C3)c1",
    "LABEL VALUE": "0 (no)"
  }
]

====

# ASSAY SYSTEM: 11β-HSD 1 (Homo sapiens, UniProt P28845)
# Construct: detecting cortisol generated from cortisterone by human liver microsomes; from tissue; host or cells: human liver microsomes
# ASSAY NAME: In vitro inhibition of 11β-HSD 1, HTRF detection of cortisol generated by human liver microsomes
# Type: biochemical
# TEST SETTINGS: 1 μM test compound, 100% indicates no inhibition, zero or below zero indicates complete inhibition (relative to carbenoxolone)
MEASURED ATTRIBUTE: Inhibitory activity on 11β-HSD 1, % CTL (% CTL)

[
  {
    "COMPOUND": "COC(=O)c1ccc(C(=O)N2[C@@H]3CC[C@H]2C[C@@H](c2ccc(C)cc2)C3)s1",
    "ASSAY SYSTEM": "11β-HSD 1 (Homo sapiens, UniProt P28845)",
    "MEASURED ATTRIBUTE": "Inhibitory activity on 11β-HSD 1, % CTL",
    "UNITS SYMBOL": "% CTL",
    "VALUE REPORTED": 87
  },
  {
    "COMPOUND": "COc1ccc(C(=O)N2[C@@H]3CC[C@H]2C[C@@H](c2ccc(F)cc2)C3)cc1",
    "ASSAY SYSTEM": "11β-HSD 1 (Homo sapiens, UniProt P28845)",
    "MEASURED ATTRIBUTE": "Inhibitory activity on 11β-HSD 1, % CTL",
    "UNITS SYMBOL": "% CTL",
    "VALUE REPORTED": 1
  },
  {
    "COMPOUND": "Cc1ccccc1C(=O)N1[C@@H]2CC[C@H]1C[C@@H](c1ccc(F)cc1)C2",
    "ASSAY SYSTEM": "11β-HSD 1 (Homo sapiens, UniProt P28845)",
    "MEASURED ATTRIBUTE": "Inhibitory activity on 11β-HSD 1, % CTL",
    "UNITS SYMBOL": "% CTL",
    "VALUE REPORTED": 61
  },
  {
    "COMPOUND": "O=C(c1cc(F)cc(F)c1)N1[C@@H]2CC[C@H]1C[C@@H](c1ccc(F)cc1)C2",
    "ASSAY SYSTEM": "11β-HSD 1 (Homo sapiens, UniProt P28845)",
    "MEASURED ATTRIBUTE": "Inhibitory activity on 11β-HSD 1, % CTL",
    "UNITS SYMBOL": "% CTL",
    "VALUE REPORTED": 85
  },
  {
    "COMPOUND": "O=C(c1ccc2cc[nH]c2c1)N1[C@@H]2CC[C@H]1C[C@@H](c1ccc(F)cc1)C2",
    "ASSAY SYSTEM": "11β-HSD 1 (Homo sapiens, UniProt P28845)",
    "MEASURED ATTRIBUTE": "Inhibitory activity on 11β-HSD 1, % CTL",
    "UNITS SYMBOL": "% CTL",
    "VALUE REPORTED": "−47"
  },
  {
    "COMPOUND": "N#Cc1cccc(C(=O)N2[C@@H]3CC[C@H]2C[C@@H](c2ccc(F)cc2)C3)c1",
    "ASSAY SYSTEM": "11β-HSD 1 (Homo sapiens, UniProt P28845)",
    "MEASURED ATTRIBUTE": "Inhibitory activity on 11β-HSD 1, % CTL",
    "UNITS SYMBOL": "% CTL",
    "VALUE REPORTED": 75
  },
  {
    "COMPOUND": "O=C(c1ccc2c(c1)OCCO2)N1C2CCC1CC(c1ccccc1)C2 (centres unmarked)",
    "ASSAY SYSTEM": "11β-HSD 1 (Homo sapiens, UniProt P28845)",
    "MEASURED ATTRIBUTE": "Inhibitory activity on 11β-HSD 1, % CTL",
    "UNITS SYMBOL": "% CTL",
    "VALUE REPORTED": "−28"
  },
  {
    "COMPOUND": "O=C(c1cscn1)N1[C@@H]2CC[C@H]1C[C@@H](c1ccc(F)cc1)C2",
    "ASSAY SYSTEM": "11β-HSD 1 (Homo sapiens, UniProt P28845)",
    "MEASURED ATTRIBUTE": "Inhibitory activity on 11β-HSD 1, % CTL",
    "UNITS SYMBOL": "% CTL",
    "VALUE REPORTED": 95
  }
]
